System: J2 IgG WT, PDB:9OJV_1+PDB:9OJV_2
Assay: BLI steady state
Details: BLI: 25 mM Tris-HCl pH 7.5, 100-400 mM KCl (per row), 2 mM MgCl2, 25 C, IgG immobilized on Protein A; FP: 25 mM Tris-HCl pH 7.5, 100 mM KCl, 2 mM MgCl2, 21 C
MEASURE: pKd
# pKd is unitless: minus log10 of the molar concentration; print number only

Consider the sequence GUUGUAAAGAAAUAUAACAGGCUUGUACCAUUGAUGGAAAAGAACAACGU / ACGUUGUUCUUUUCCAUCAAUGGUACAAGCCUGUUAUAUUUCUUUACAAC [50-bp dsRNA] and give its measured pKd.
7.66

====

System: J2 IgG WT, PDB:9OJV_1+PDB:9OJV_2
Test: BLI steady state
Conditions: 200 mM KCl; kinetic Kd 37 ± 7 nM; BLI: 25 mM Tris-HCl pH 7.5, 100-400 mM KCl (per row), 2 mM MgCl2, 25 C, IgG immobilized on Protein A; FP: 25 mM Tris-HCl pH 7.5, 100 mM KCl, 2 mM MgCl2, 21 C
MEASURE: Kd (µM)
Number in µM, nothing else.

Look up Kd with J2 IgG WT, PDB:9OJV_1+PDB:9OJV_2 for this sequence: GUUGUAAAGAAAUAUAACAGGCUUGUACCA / UGGUACAAGCCUGUUAUAUUUCUUUACAAC [30-bp dsRNA]
0.047

====

Tested on: J2 IgG LC Y38F, PDB:9OJV_1+PDB:9OJV_2
Test: BLI steady state
Conditions: 100 mM KCl; kinetic Kd 83 ± 14 nM; BLI: 25 mM Tris-HCl pH 7.5, 100-400 mM KCl (per row), 2 mM MgCl2, 25 C, IgG immobilized on Protein A; FP: 25 mM Tris-HCl pH 7.5, 100 mM KCl, 2 mM MgCl2, 21 C
MEASURE: pKd
Please express pKd as -log10 of the molar concentration.

Data request, read-out pKd, for GUUGUAAAGAAAUAUAGGCU / AGCCUAUAUUUCUUUACAAC [20-bp dsRNA]
6.82
